B1: FAM164A (parent)
chain: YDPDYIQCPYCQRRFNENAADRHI

variants of: B1; experiment: protein stability index of a GFP-peptide fusion (GPS, HEK-293T) (PSI 1-6); higher = more stable; settings: c terminus: a fixed tail appended;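 further: lentivirally expressed fusions sorted by FACS into six bins by GFP to DsRed ratio, PSI derived from sequencing read proportions per bin multiplied by bin number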

[
  {
    "seq text": "YDPDYIQCPYCQRRRNENAADRHI",
    "protein stability index": 3.59
  },
  {
    "seq text": "YDPDYIQCPYCQRRFNENMADRHI",
    "protein stability index": 3.88
  },
  {
    "seq text": "YKPDYIQCPYCQRRFNENAADRHI",
    "protein stability index": 4.37
  },
  {
    "seq text": "YDPDYIQCPYCQRRFNENAADRTI",
    "protein stability index": 3.65
  },
  {
    "seq text": "YDPDYIQCPFCQRRFNENAADRHI",
    "protein stability index": 4.28
  },
  {
    "seq text": "YDPDYIQCPYCQRIFNENAADRHI",
    "protein stability index": 4.64
  },
  {
    "seq text": "YDPDYIQCPYCQRRINENAADRHI",
    "protein stability index": 4.21
  },
  {
    "seq text": "YDPDYIGCPYCQRRFNENAADRHI",
    "protein stability index": 2.54
  },
  {
    "seq text": "TDPDYIQCPYCQRRFNENAADRHI",
    "protein stability index": 4.79
  },
  {
    "seq text": "YDPDYIQGPYCQRRFNENAADRHI",
    "protein stability index": 3.81
  },
  {
    "seq text": "YDPDYIQCPYCQRRFNENAAIRHI",
    "protein stability index": 4.63
  }
]
